pIC50: −log10 of the molar value.
As a worked illustration, we turn to pIC50 data collected for UniProt:Q16539.
Sequence (Q16539 whole entry, looked up): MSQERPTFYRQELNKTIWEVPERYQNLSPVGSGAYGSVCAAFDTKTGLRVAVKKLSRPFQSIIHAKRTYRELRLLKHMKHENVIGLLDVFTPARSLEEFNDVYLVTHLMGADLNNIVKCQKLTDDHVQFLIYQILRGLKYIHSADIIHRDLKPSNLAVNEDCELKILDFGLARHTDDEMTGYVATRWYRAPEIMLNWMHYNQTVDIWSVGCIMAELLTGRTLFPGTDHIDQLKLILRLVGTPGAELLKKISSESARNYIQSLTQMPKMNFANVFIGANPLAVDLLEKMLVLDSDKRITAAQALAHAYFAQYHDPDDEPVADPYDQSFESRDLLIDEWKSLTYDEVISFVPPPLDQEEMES
measured_metric: pIC50

>  <structure_notation>
Cc1cc(OCc2ccccc2CNC(=O)Nc2cc(C3CC3)nn2-c2ccccc2)c(Br)c(=O)n1Cc1ccccc1

>  <measured_metric>
pIC50

>  <quantitative_readout>
6.75

$$$$
>  <structure_notation>
COC(=O)c1ccc(Cn2c(C)cc(OCc3ccccc3CNC(=O)Nc3cc(C(C)(C)C)nn3-c3ccc(C)cc3)c(Br)c2=O)cc1

>  <measured_metric>
pIC50

>  <quantitative_readout>
7.77

$$$$
>  <structure_notation>
Cc1cc(OCc2ccccc2CNC(=O)Nc2cc(C(C)(C)C)nn2-c2ccc(O)c(Cl)c2)c(Cl)c(=O)n1Cc1ccc(C(=O)CN)cc1

>  <measured_metric>
pIC50

>  <quantitative_readout>
8.44

$$$$
>  <structure_notation>
Cc1cc(OCc2ccccc2CNC(=O)Nc2cc(C(C)(C)C)nn2-c2ccc(Cl)c(O)c2)c(Cl)c(=O)n1Cc1ccc(C(=O)CN)cc1

>  <measured_metric>
pIC50

>  <quantitative_readout>
8.62

$$$$

Hello, the source for this data is the Kinase Knowledgebase extract (Sharma et al. 2016), in case you need it.
